Known inhibition at 10 µM of a selection of molecules
Target Or Test System: human B1R (Homo sapiens)
Construct: expressed in transfected cells; host or cells: CHO K1 cells (Chinese Hamster Ovary), stably transfected
Sequence (P46663 whole entry): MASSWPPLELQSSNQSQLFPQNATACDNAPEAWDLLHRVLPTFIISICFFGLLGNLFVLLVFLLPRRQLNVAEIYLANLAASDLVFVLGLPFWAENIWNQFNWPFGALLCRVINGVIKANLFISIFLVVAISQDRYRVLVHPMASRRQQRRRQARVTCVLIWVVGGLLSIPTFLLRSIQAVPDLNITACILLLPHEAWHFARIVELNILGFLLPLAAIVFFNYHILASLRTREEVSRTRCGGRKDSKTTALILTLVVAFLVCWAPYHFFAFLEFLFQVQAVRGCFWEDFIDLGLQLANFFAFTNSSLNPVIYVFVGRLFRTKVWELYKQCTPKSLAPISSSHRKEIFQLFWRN
Protocol Text: Functional assay at bradykinin receptor 1 (B1R): Ca2+ fluorescence (Fluo-4) in FLIPR/Novostar, antagonist mode
Format: cell-based
Measurement Context: test substance 10 µM; CHO K1 cells stably transfected with human B1R gene (hB1R-Zellen); agonist Lys-Des-Arg9-Bradykinin at EC80; % inhibition relative to maximal achievable inhibition; read-out: % Inhibierung (human B1R) bei 10 µM
Measured Quantity: inhibition at 10 µM (%)

# Molecule, Quantity Unit, Measured Result
rows = [
    ("COc1cc(C)c(S(=O)(=O)Cc2noc(CC(=O)N(C)C3CCN(Cc4ccc(N5CCCC5)nc4)CC3)n2)c(C)c1 [SC-65]", "%", 100),
    ("COc1cc(C)c(S(=O)(=O)Cc2noc(C(=O)N3CCC4(CCN(c5ccncc5)CC4)C3)n2)c(C)c1 [SC-04]", "%", 100),
    ("COc1cc(C)c(S(=O)(=O)Cc2nnc(CC(=O)N(C)C3CCNCC3(C)C)o2)c(C)c1 (stereo not shown) [CC-88]", "%", 97),
    ("COc1cc(C)c(S(=O)(=O)Cc2noc(C(=O)NC3CCN(c4ccc(C(F)(F)F)cn4)CC3)n2)c(C)c1 [CC-02]", "%", 86),
]

----------
Target Or Test System: human B1R (Homo sapiens)
Construct: expressed in transfected cells; host or cells: CHO K1 cells (Chinese Hamster Ovary), stably transfected
Protocol Text: Functional assay at bradykinin receptor 1 (B1R): Ca2+ fluorescence (Fluo-4) in FLIPR/Novostar, antagonist mode
Assay type: cell-based
Measurement Context: test substance 10 µM; CHO K1 cells stably transfected with human B1R gene (hB1R-Zellen); agonist Lys-Des-Arg9-Bradykinin at EC80; % inhibition relative to maximal achievable inhibition; read-out: % Inhibierung (human B1R) bei 10 µM

# Compound, Target Or Test System, inhibition at 10 µM, %
measured = [
    ("COc1cc(C)c(S(=O)(=O)Cc2c(C)nn(CC(=O)NC3CCC(NC4CC4)CC3(C)C)c2C)c(C)c1 (centres unmarked)", "human B1R (Homo sapiens)", 100),
    ("Cc1cccc(Cl)c1S(=O)(=O)Cc1noc(C(=O)NC2CCC(N3CCCC3)CC2(C)C)n1 (centres unmarked)", "human B1R (Homo sapiens)", 89),
    ("COc1cc(C)c(S(=O)(=O)Cc2nc(CC(=O)NC3CCN(C)CC3(C)C)no2)c(C)c1 (centres unmarked)", "human B1R (Homo sapiens)", 100),
    ("COc1cc(C)c(S(=O)(=O)Cc2noc(C(=O)N[C@H]3CCC[C@@H](N4CCN(C)CC4)C3)n2)c(C)c1", "human B1R (Homo sapiens)", 100),
    ("COc1cc(C)c(S(=O)(=O)Cc2cn(CC(=O)NC3CCC(N(C)C)CC3)nn2)c(C)c1 (centres unmarked)", "human B1R (Homo sapiens)", 100),
    ("COc1cc(C)c(S(=O)(=O)Cc2noc(C(=O)NC3CCN(c4ccncc4)CC3)n2)c(C)c1", "human B1R (Homo sapiens)", 99),
    ("COCCN1CCC(NC(=O)Cc2nc(CS(=O)(=O)c3cccc(Cl)c3Cl)no2)C(C)(C)C1 (centres unmarked)", "human B1R (Homo sapiens)", 60),
    ("COc1cc(C)c(S(=O)(=O)Cc2noc(C(=O)N3CCC(Oc4ccncc4)C3)n2)c(C)c1 (centres unmarked)", "human B1R (Homo sapiens)", 98),
]

Reference source: patent EP2857388A1
